Where these numbers come from: PubChem BioAssay AID1919002

# Test system: 743489-274-T-PDC complex spheroid growth
# experimentNotes: Anticancer human tumor 743489-274-T-PDC patient-derived renal cell carcinoma cell line growth inhibition [AhR]
# conditionParameters: second compound 10 µM; first compound 0.000949 µM; stronger effect = lower value

{"columns": ["compound", "viability, T/C (%)"],
 "data": [
  ["Nc1ncn(C2CC(O)C(CO)S2)c(=O)n1 (centres undefined) + Cc1ccccc1N=Nc1ccc(NC(=O)c2ccnn2C)c(C)c1", 76],
  ["CCc1c2c(nc3ccc(O)cc13)-c1cc3c(c(=O)n1C2)COC(=O)[C@]3(O)CC + Cc1ccccc1N=Nc1ccc(NC(=O)c2ccnn2C)c(C)c1", 85.4],
  ["CCc1c2c(nc3ccc(O)cc13)-c1cc3c(c(=O)n1C2)COC(=O)[C@]3(O)CC + CC(CO)NC(=O)c1cc(-c2ccc(Cl)cc2)nn(-c2cnn(C)c2)c1=O", 87.7],
  ["Nc1ncn(C2CC(O)C(CO)S2)c(=O)n1 (centres undefined) + Cc1cncc(-c2nc(NCCc3c[nH]c4ccccc34)c3ncn(C(C)C)c3n2)c1", 138],
  ["CC(C)CC(NC(=O)C(Cc1ccccc1)NC(=O)c1cnccn1)B(O)O (centres undefined) + Cc1ccccc1N=Nc1ccc(NC(=O)c2ccnn2C)c(C)c1", 77.4],
  ["CC(C)CC(NC(=O)C(Cc1ccccc1)NC(=O)c1cnccn1)B(O)O (centres undefined) + Cc1cncc(-c2nc(NCCc3c[nH]c4ccccc34)c3ncn(C(C)C)c3n2)c1", 124],
  ["CCc1c2c(nc3ccc(O)cc13)-c1cc3c(c(=O)n1C2)COC(=O)[C@]3(O)CC + Cc1cncc(-c2nc(NCCc3c[nH]c4ccccc34)c3ncn(C(C)C)c3n2)c1", 131],
  ["CC(C)CC(NC(=O)C(Cc1ccccc1)NC(=O)c1cnccn1)B(O)O (centres undefined) + CC(CO)NC(=O)c1cc(-c2ccc(Cl)cc2)nn(-c2cnn(C)c2)c1=O", 98],
  ["Nc1ncn(C2CC(O)C(CO)S2)c(=O)n1 (centres undefined) + CC(CO)NC(=O)c1cc(-c2ccc(Cl)cc2)nn(-c2cnn(C)c2)c1=O", 95.5]
]}

* * *

# Tested on: 743489-274-T-PDC complex spheroid growth
# experimentNotes: Anticancer human tumor 743489-274-T-PDC cell line growth inhibition [AhR];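 further: spheroids exposed to agents for 7 days before readout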
# conditionParameters: curve of first compound; second compound 10 µM
measuredProperty: IC50

{"columns": ["molecule", "observed"],
 "data": [
  ["CC[C@@]1(O)C(=O)OCc2c1cc1n(c2=O)Cc2cc3c(CN(C)C)c(O)ccc3nc2-1 + CC(CO)NC(=O)c1cc(-c2ccc(Cl)cc2)nn(-c2cnn(C)c2)c1=O", "> 0.1 µM"],
  ["NS(=O)(=O)OCC1CC(n2ccc3c(NC4CCc5ccccc54)ncnc32)CC1O (stereo not drawn) + Cc1cncc(-c2nc(NCCc3c[nH]c4ccccc34)c3ncn(C(C)C)c3n2)c1", "> 10 µM"],
  ["CC1(C)CCC(CN2CCN(c3ccc(C(=O)NS(=O)(=O)c4ccc(NCC5CCOCC5)c([N+](=O)[O-])c4)c(Oc4cnc5[nH]ccc5c4)c3)CC2)=C(c2ccc(Cl)cc2)C1 + CC(CO)NC(=O)c1cc(-c2ccc(Cl)cc2)nn(-c2cnn(C)c2)c1=O", "> 10 µM"],
  ["O=C(c1cc(Cc2n[nH]c(=O)c3ccccc23)ccc1F)N1CCN(C(=O)C2CC2)CC1 + Cc1cncc(-c2nc(NCCc3c[nH]c4ccccc34)c3ncn(C(C)C)c3n2)c1", "> 10 µM"],
  ["O=C(C=Cn1cnc(-c2cc(C(F)(F)F)cc(C(F)(F)F)c2)n1)NNc1cnccn1 + Cc1ccccc1N=Nc1ccc(NC(=O)c2ccnn2C)c(C)c1", "> 3 µM"],
  ["CC(C)c1c(-c2ccccc2)nc2c(C#N)c[nH]n2c1=O + Cc1cncc(-c2nc(NCCc3c[nH]c4ccccc34)c3ncn(C(C)C)c3n2)c1", "> 10 µM"],
  ["Nc1ncn(C2CC(O)C(CO)O2)c(=O)n1 (stereo not drawn) + CC(CO)NC(=O)c1cc(-c2ccc(Cl)cc2)nn(-c2cnn(C)c2)c1=O", "> 1 µM"],
  ["CC1COCCN1c1cc(-c2ccnn2C)c2ccnc(-c3ccn[nH]3)c2n1 (stereo not drawn) + Cc1ccccc1N=Nc1ccc(NC(=O)c2ccnn2C)c(C)c1", "> 1 µM"],
  ["CC(C)CC(NC(=O)C(Cc1ccccc1)NC(=O)c1cnccn1)B(O)O (stereo not drawn) + CC(CO)NC(=O)c1cc(-c2ccc(Cl)cc2)nn(-c2cnn(C)c2)c1=O", "0.0166 µM"],
  ["COc1ccc([C@@H](O)c2cc(-c3ncnc4cc(N5CCOCC5)ccc34)c(F)cc2Cl)nn1 + CC(CO)NC(=O)c1cc(-c2ccc(Cl)cc2)nn(-c2cnn(C)c2)c1=O", "2.73 µM"],
  ["Cn1ncnc1C1c2n[nH]c(=O)c3cc(F)cc(c23)NC1c1ccc(F)cc1 (stereo not drawn) + CC(CO)NC(=O)c1cc(-c2ccc(Cl)cc2)nn(-c2cnn(C)c2)c1=O", "> 0.1 µM"],
  ["COc1cc(Nc2ncc3c(n2)-c2ccc(Cl)cc2C(c2c(F)cccc2OC)=NC3)ccc1C(=O)O + Cc1cncc(-c2nc(NCCc3c[nH]c4ccccc34)c3ncn(C(C)C)c3n2)c1", "> 10 µM"],
  ["CC(C)CC(NC(=O)C(Cc1ccccc1)NC(=O)c1cnccn1)B(O)O (stereo not drawn) + Cc1ccccc1N=Nc1ccc(NC(=O)c2ccnn2C)c(C)c1", "0.0212 µM"],
  ["COc1ccc([C@@H](O)c2cc(-c3ncnc4cc(N5CCOCC5)ccc34)c(F)cc2Cl)nn1 + Cc1cncc(-c2nc(NCCc3c[nH]c4ccccc34)c3ncn(C(C)C)c3n2)c1", "> 10 µM"],
  ["CC1(C)CCC(CN2CCN(c3ccc(C(=O)NS(=O)(=O)c4ccc(NCC5CCOCC5)c([N+](=O)[O-])c4)c(Oc4cnc5[nH]ccc5c4)c3)CC2)=C(c2ccc(Cl)cc2)C1 + Cc1ccccc1N=Nc1ccc(NC(=O)c2ccnn2C)c(C)c1", "> 10 µM"],
  ["CC1(C)CCC(CN2CCN(c3ccc(C(=O)NS(=O)(=O)c4ccc(NCC5CCOCC5)c([N+](=O)[O-])c4)c(Oc4cnc5[nH]ccc5c4)c3)CC2)=C(c2ccc(Cl)cc2)C1 + Cc1cncc(-c2nc(NCCc3c[nH]c4ccccc34)c3ncn(C(C)C)c3n2)c1", "> 10 µM"],
  ["COc1cc(Nc2ncc3c(n2)-c2ccc(Cl)cc2C(c2c(F)cccc2OC)=NC3)ccc1C(=O)O + Cc1ccccc1N=Nc1ccc(NC(=O)c2ccnn2C)c(C)c1", "> 10 µM"],
  ["CC1COCCN1c1cc(C2(S(C)(=N)=O)CC2)nc(-c2ccnc3[nH]ccc23)n1 (stereo not drawn) + Cc1cncc(-c2nc(NCCc3c[nH]c4ccccc34)c3ncn(C(C)C)c3n2)c1", "> 10 µM"],
  ["Nc1ncn(C2CC(O)C(CO)S2)c(=O)n1 (stereo not drawn) + Cc1ccccc1N=Nc1ccc(NC(=O)c2ccnn2C)c(C)c1", "> 0.3 µM"],
  ["Nc1ccn(C2OC(CO)C(O)C2(F)F)c(=O)n1 (stereo not drawn) + Cc1cncc(-c2nc(NCCc3c[nH]c4ccccc34)c3ncn(C(C)C)c3n2)c1", "> 10 µM"],
  ["O=C(C=Cn1cnc(-c2cc(C(F)(F)F)cc(C(F)(F)F)c2)n1)NNc1cnccn1 + CC(CO)NC(=O)c1cc(-c2ccc(Cl)cc2)nn(-c2cnn(C)c2)c1=O", "> 3 µM"],
  ["O=C(C=Cc1cccc(S(=O)(=O)Nc2ccccc2)c1)NO + CC(CO)NC(=O)c1cc(-c2ccc(Cl)cc2)nn(-c2cnn(C)c2)c1=O", "7.34 µM"],
  ["CCN(c1cc(-c2ccc(CN3CCOCC3)cc2)cc(C(=O)NCc2c(C)cc(C)[nH]c2=O)c1C)C1CCOCC1 + Cc1ccccc1N=Nc1ccc(NC(=O)c2ccnn2C)c(C)c1", "> 3 µM"]
]}
